system: BT-549; assay: Growth inhibition of human BT549 cells assessed as cell growth at 10 uM incubated for 48 hrs by sulforhodamine B assay relative to control; type: functional; conditions: BT-549, 48 h, read-out: Activity
This section presents molecules with their documented growth at 10 µM values.
reported.property: growth at 10 µM

# mol.smiles, measured
measured = [
    ("Cc1oc2ncnc(Nc3ccccc3)c2c1C(=O)NCCO", "90.1%"),
    ("CCOC(=O)c1c(C)oc2ncnc(Nc3ccc(F)cc3)c12", "98.5%"),
    ("CCOC(=O)c1c(C)oc2ncnc(Nc3ccc(F)c(Cl)c3)c12", "101%"),
    ("CCOC(=O)c1c(C)oc2ncnc(Nc3ccc(OCc4cccc(C)c4)cc3)c12", "106%"),
    ("Cc1cccc(Nc2ncnc3oc(C)c(C(=O)NCCO)c23)c1", "90.7%"),
    ("CCOC(=O)c1c(C)oc2ncnc(Nc3cccc(F)c3)c12", "94.2%"),
]

====

tested on: K562; assay: Growth inhibition of human K562 cells assessed as cell growth at 10 uM incubated for 48 hrs by sulforhodamine B assay relative to control; type: functional; conditions: K562, 48 h, read-out: Activity
This section presents compounds with their documented growth at 10 µM values.

# mol.smiles, result.units, growth at 10 µM
measured = [
    ("Cc1cccc(Nc2ncnc3oc(C)c(C(=O)NCCN4CCOCC4)c23)c1", "%", 98.3),
    ("Cc1oc2ncnc(Nc3cccc(Cl)c3)c2c1CO", "%", 85.4),
    ("Cc1oc2ncnc(Nc3ccc(OCc4cccc(F)c4)c(Cl)c3)c2c1C(=O)NCCO", "%", 33.2),
    ("CCCNC(=O)c1c(C)oc2ncnc(Nc3cccc(Cl)c3)c12", "%", 90.1),
    ("Cc1oc2ncnc(Nc3ccccc3)c2c1C(=O)NCCO", "%", 29.4),
    ("CCOC(=O)c1c(C)oc2ncnc(Nc3cccc(F)c3)c12", "%", 101),
    ("CCOC(=O)c1c(C)oc2ncnc(Nc3ccc(OCc4ccc(Cl)c(Cl)c4)cc3)c12", "%", 93.8),
]

====

target: Epidermal growth factor receptor (Homo sapiens, UniProt P00533); assay: Inhibition of recombinant human C-terminal His/N-terminal GST-tagged EGFR (668 to 1210 residues) expressed in baculovirus infected Sf9 cells at 10 uM using biotin-labeled poly[Glu:Tyr] (4:1) as substrate after 30 mins by Kinase-Glo plus luminescence assay relative to control
Sequence (P00533 whole entry, the tested form may be a part): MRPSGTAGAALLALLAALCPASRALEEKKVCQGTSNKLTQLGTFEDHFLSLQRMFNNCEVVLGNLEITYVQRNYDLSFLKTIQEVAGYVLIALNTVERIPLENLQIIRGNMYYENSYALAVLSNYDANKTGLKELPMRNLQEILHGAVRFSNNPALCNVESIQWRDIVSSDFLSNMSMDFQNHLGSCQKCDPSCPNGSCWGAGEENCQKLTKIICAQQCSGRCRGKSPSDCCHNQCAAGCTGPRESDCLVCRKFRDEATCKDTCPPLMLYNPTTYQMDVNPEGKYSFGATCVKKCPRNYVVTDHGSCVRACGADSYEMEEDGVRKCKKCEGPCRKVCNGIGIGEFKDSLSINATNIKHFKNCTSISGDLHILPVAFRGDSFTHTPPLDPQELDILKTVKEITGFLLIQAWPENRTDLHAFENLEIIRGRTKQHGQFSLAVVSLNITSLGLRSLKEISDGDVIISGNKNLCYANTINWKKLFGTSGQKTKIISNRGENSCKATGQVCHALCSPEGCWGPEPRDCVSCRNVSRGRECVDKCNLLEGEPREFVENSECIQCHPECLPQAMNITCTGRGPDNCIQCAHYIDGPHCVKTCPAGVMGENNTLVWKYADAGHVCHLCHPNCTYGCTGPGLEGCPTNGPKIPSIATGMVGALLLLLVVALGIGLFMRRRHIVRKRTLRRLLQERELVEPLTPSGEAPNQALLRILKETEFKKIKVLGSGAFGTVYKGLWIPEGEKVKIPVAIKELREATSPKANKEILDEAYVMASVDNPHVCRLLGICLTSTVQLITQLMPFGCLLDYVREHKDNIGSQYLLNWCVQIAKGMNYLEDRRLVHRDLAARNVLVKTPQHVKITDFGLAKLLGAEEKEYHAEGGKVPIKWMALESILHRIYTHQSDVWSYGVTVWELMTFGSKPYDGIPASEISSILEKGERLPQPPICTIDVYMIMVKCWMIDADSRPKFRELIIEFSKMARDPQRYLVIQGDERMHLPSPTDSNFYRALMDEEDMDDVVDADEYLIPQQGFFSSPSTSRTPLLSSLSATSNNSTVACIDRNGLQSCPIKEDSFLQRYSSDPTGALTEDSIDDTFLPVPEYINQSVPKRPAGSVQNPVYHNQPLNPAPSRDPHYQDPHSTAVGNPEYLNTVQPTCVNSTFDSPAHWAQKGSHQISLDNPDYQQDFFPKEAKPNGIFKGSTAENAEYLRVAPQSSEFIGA
reported.property: inhibition (%)

# mol.smiles, measured
rows = [
    ("CCOC(=O)c1c(C)oc2ncnc(Nc3ccc(OCc4cccc(Cl)c4)cc3)c12", 5),
    ("Cc1oc2ncnc(Nc3cccc(F)c3)c2c1C(=O)O", 49),
    ("CCOC(=O)c1c(C)oc2ncnc(Nc3ccc(OCc4cccc(C)c4)cc3)c12", 6),
    ("CCOC(=O)c1c(C)oc2ncnc(Nc3ccc(F)c(Cl)c3)c12", 10),
    ("CCOC(=O)c1c(C)oc2ncnc(Nc3ccc(OCc4ccc(C)cc4)cc3)c12", 6),
    ("C#Cc1cccc(Nc2ncnc3oc(C)c(C(=O)OCC)c23)c1", 26),
    ("CCOC(=O)c1c(C)oc2ncnc(Nc3cccc(OC)c3)c12", 6),
    ("Cc1oc2ncnc(Nc3ccccc3)c2c1C(=O)NCCO", 8),
    ("Cc1oc2ncnc(Nc3ccc(OCc4cccc(F)c4)c(Cl)c3)c2c1C(=O)NCCO", 32),
    ("CCOC(=O)c1c(C)oc2ncnc(Nc3cccc(F)c3)c12", 2),
    ("CCCNC(=O)c1c(C)oc2ncnc(Nc3cccc(C)c3)c12", 20),
    ("Cc1cccc(Nc2ncnc3oc(C)c(C(=O)O)c23)c1", 58),
    ("CCOC(=O)c1c(C)oc2ncnc(Nc3ccc(OCc4cccc(F)c4)cc3)c12", 34),
    ("CCOC(=O)c1c(C)oc2ncnc(Nc3cccc(Cl)c3)c12", 28),
    ("CCOC(=O)c1c(C)oc2ncnc(Nc3ccc(F)cc3)c12", 6),
    ("Cc1oc2ncnc(Nc3cccc(Br)c3)c2c1CO", 70),
    ("Cc1oc2ncnc(Nc3cccc(Cl)c3)c2c1C(=O)NCCO", 85),
    ("CCOC(=O)c1c(C)oc2ncnc(Nc3cccc(Br)c3)c12", 26),
    ("CCOC(=O)c1c(C)oc2ncnc(Nc3ccccc3)c12", 22),
    ("Cc1cccc(Nc2ncnc3oc(C)c(CO)c23)c1", 72),
    ("Cc1oc2ncnc(Nc3cccc(Br)c3)c2c1C(=O)NCCO", 73),
    ("Cc1oc2ncnc(Nc3ccc(OCc4cccc(F)c4)c(Cl)c3)c2c1C(=O)O", 100),
    ("CCCNC(=O)c1c(C)oc2ncnc(Nc3cccc(Cl)c3)c12", 65),
    ("Cc1cccc(Nc2ncnc3oc(C)c(C(=O)NCCN4CCOCC4)c23)c1", 30),
    ("Cc1oc2ncnc(Nc3cccc(F)c3)c2c1C(=O)NCCO", 20),
]

====

tested on: SNB-19; test: Growth inhibition of human SNB19 cells assessed as cell growth at 10 uM incubated for 48 hrs by sulforhodamine B assay relative to control; type: functional; settings: SNB-19, 48 h, read-out: Activity
I would appreciate it if you labelled entries class 1 when growth at 10 µM is 90% or higher, otherwise class 0.

# mol.smiles, system.under.test, discrete.label
rows = [
    ("Cc1oc2ncnc(Nc3cccc(F)c3)c2c1C(=O)NCCO", "SNB-19", "class 1"),
    ("Cc1oc2ncnc(Nc3cccc(F)c3)c2c1C(=O)O", "SNB-19", "class 1"),
    ("Cc1oc2ncnc(Nc3ccccc3)c2c1C(=O)NCCO", "SNB-19", "class 1"),
    ("CCOC(=O)c1c(C)oc2ncnc(Nc3ccc(F)c(Cl)c3)c12", "SNB-19", "class 1"),
    ("Cc1oc2ncnc(Nc3ccc(OCc4cccc(F)c4)c(Cl)c3)c2c1C(=O)NCCO", "SNB-19", "class 0"),
    ("Cc1oc2ncnc(Nc3cccc(Cl)c3)c2c1CO", "SNB-19", "class 0"),
]

====

molecular target: Receptor tyrosine-protein kinase erbB-2 (Homo sapiens); assay: Inhibition of recombinant human N-terminal GST-tagged HER2 (679 to 1255 residues) expressed in baculovirus infected Sf9 cells at 10 uM using poly[Glu:Tyr] (4:1) as substrate after 40 mins by Kinase-Glo plus luminescence assay relative to control

# mol.smiles, inhibition (%)
data = [
    ("CCOC(=O)c1c(C)oc2ncnc(Nc3ccc(OCc4cccc(C)c4)cc3)c12", 16),
    ("CCOC(=O)c1c(C)oc2ncnc(Nc3ccc(OCc4cccc(Cl)c4)cc3)c12", 7),
    ("CCOC(=O)c1c(C)oc2ncnc(Nc3ccc(OCc4ccc(Cl)cc4)cc3)c12", 18),
    ("CCOC(=O)c1c(C)oc2ncnc(Nc3ccc(OCc4cccc(F)c4)c(Cl)c3)c12", 6),
    ("CCOC(=O)c1c(C)oc2ncnc(Nc3ccc(OCc4ccc(C)cc4)cc3)c12", 20),
    ("Cc1oc2ncnc(Nc3ccc(OCc4cccc(F)c4)c(Cl)c3)c2c1C(=O)NCCO", 6),
    ("CCOC(=O)c1c(C)oc2ncnc(Nc3ccc(OCc4ccc(Cl)c(Cl)c4)cc3)c12", 13),
    ("CCOC(=O)c1c(C)oc2ncnc(Nc3ccc(OCc4cccc(F)c4)cc3)c12", 19),
    ("CCOC(=O)c1c(C)oc2ncnc(Nc3ccc(OCc4ccccc4)cc3)c12", 3),
    ("Cc1oc2ncnc(Nc3ccc(OCc4cccc(F)c4)c(Cl)c3)c2c1C(=O)O", 65),
]

====

biological target: Epidermal growth factor receptor (Homo sapiens); assay: Inhibition of recombinant human C-terminal His/N-terminal GST-tagged EGFR (668 to 1210 residues) expressed in baculovirus infected Sf9 cells using biotin-labeled poly[Glu:Tyr] (4:1) as substrate after 30 mins by Kinase-Glo plus luminescence assay
pIC50: −log10 of the molar value.
This section presents molecules with their documented pIC50 values.

# mol.smiles, pIC50
data = [
    ("Cc1oc2ncnc(Nc3ccc(OCc4cccc(F)c4)c(Cl)c3)c2c1C(=O)O", 6.02),
    ("Cc1oc2ncnc(Nc3cccc(Br)c3)c2c1C(=O)O", 6.12),
    ("Cc1oc2ncnc(Nc3cccc(Cl)c3)c2c1C(=O)O", 6.05),
    ("Cc1oc2ncnc(Nc3cccc(Cl)c3)c2c1C(=O)NCCO", 5.57),
]

====

This section presents compounds with their documented growth at 10 µM values.
test system: EKVX; experiment: Growth inhibition of human EKVX cells assessed as cell growth at 10 uM incubated for 48 hrs by sulforhodamine B assay relative to control; type: functional; details: read-out: Activity
reported.property: growth at 10 µM (%)

# mol.smiles, system.under.test, reported.property, result.units, measured
records = [
    ("Cc1oc2ncnc(Nc3cccc(Cl)c3)c2c1CO", "EKVX", "growth at 10 µM", "%", 64.4),
    ("CCOC(=O)c1c(C)oc2ncnc(Nc3ccc(F)c(Cl)c3)c12", "EKVX", "growth at 10 µM", "%", 108),
    ("Cc1oc2ncnc(Nc3ccccc3)c2c1C(=O)NCCO", "EKVX", "growth at 10 µM", "%", 97.6),
]
